method: AUC (0 to 8 hrs) in non-fasted Sprague-Dawley rat at 30 mg/kg, po by LC-MS/MS analysis
Format: ADME, organism-based
Design: dose 30 mg/kg, time < 8 hr, route oral
assay-conditions: in vivo
Reported values of AUC(0-t) at 8 h for individual entries
value-kind: AUC(0-t) at 8 h (ng·h/mL)

1. CC(C)c1cc(C(C)C)c(CC(=O)NS(=O)(=O)Oc2c(C(C)C)cccc2C(C)C)c(C(C)C)c1 : 48100
2. CC(C)c1cccc(C(C)C)c1NC(=O)CCCCCCCCSc1nc2ccccc2o1 : 358

* * *

Reported values of IC50 for individual entries
test-system: Sterol O-acyltransferase 1 (Mus musculus, UniProt Q61263)
Sequence (Q61263 whole entry): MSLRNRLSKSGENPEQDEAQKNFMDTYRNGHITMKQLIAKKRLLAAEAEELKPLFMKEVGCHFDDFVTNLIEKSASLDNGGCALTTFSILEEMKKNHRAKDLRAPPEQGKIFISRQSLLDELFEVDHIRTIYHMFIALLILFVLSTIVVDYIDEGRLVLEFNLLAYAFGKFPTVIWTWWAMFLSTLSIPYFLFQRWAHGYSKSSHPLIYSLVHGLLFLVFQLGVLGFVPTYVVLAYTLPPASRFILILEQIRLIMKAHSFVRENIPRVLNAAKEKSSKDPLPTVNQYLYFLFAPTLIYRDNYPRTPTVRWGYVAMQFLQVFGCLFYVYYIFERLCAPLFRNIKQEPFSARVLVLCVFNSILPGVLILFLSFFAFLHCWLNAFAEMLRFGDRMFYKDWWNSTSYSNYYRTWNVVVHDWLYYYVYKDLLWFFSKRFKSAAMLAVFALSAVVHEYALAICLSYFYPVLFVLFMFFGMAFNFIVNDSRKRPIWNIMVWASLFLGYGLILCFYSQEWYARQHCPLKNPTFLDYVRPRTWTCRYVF
method: Inhibition of ACAT1 in mouse J774 cells assessed as reduction in esterified cholesterol accumulation after 18 hrs in presence of 25-hydroxycholesterol
Format: cell-based
value-kind: IC50

1) CC(C)c1cccc(C(C)C)c1NC(=O)CCCCCSc1nc2cccc(CO)c2o1 : 2200 nM
2) CCCCCCCN(CCCCCSc1nc(-c2ccccc2)c(-c2ccccc2)[nH]1)C(=O)Nc1ccc(F)cc1F [LECIMIBIDE] : 820 nM
3) CC(C)c1cccc(C(C)C)c1NC(=O)CSc1nc2ccccc2s1 : 180 nM
4) CC(C)c1cccc(C(C)C)c1NC(=O)CCCCCSc1nc2ccc(N(C)C)cc2o1 : 1100 nM
5) CC(C)c1cccc(C(C)C)c1NC(=O)CCCCCSc1nc2ccncc2o1 : 4100 nM
6) CC(C)c1cccc(C(C)C)c1NC(=O)CCCCCCCCCSc1nc2ccccc2[nH]1 : 460 nM
7) CC(C)c1cccc(C(C)C)c1NC(=O)CCCCCSc1nc2ccc(CO)cc2o1 : 7000 nM
8) CC(C)c1cccc(C(C)C)c1NC(=O)CCCCCSc1nc2cnccc2o1 : 2800 nM
9) CC(C)c1cccc(C(C)C)c1NC(=O)CCCSc1nc2ccccc2[nH]1 : 3100 nM
10) CC(C)c1cccc(C(C)C)c1NC(=O)CCCCCSc1nc2c(C(=O)O)cccc2o1 : 11000 nM

* * *

Reported values of Cmax for individual entries
method: Cmax in non-fasted Sprague-Dawley rat at 30 mg/kg, po by LC-MS/MS analysis
Assay type: ADME, organism-based
Set-up: dose 30 mg/kg, route oral
assay-conditions: in vivo
value-kind: Cmax (ng/mL)

1. CC(C)c1cc(C(C)C)c(CC(=O)NS(=O)(=O)Oc2c(C(C)C)cccc2C(C)C)c(C(C)C)c1 : 4580
2. CC(C)c1cccc(C(C)C)c1NC(=O)CCCCCCCCSc1nc2ccccc2o1 : 107
